Quick list: IC50 per entry.
testedOn: Phosphatidylinositol 4,5-bisphosphate 3-kinase catalytic subunit alpha isoform (Homo sapiens)
Sequence (P42336 whole entry, canonical isoform): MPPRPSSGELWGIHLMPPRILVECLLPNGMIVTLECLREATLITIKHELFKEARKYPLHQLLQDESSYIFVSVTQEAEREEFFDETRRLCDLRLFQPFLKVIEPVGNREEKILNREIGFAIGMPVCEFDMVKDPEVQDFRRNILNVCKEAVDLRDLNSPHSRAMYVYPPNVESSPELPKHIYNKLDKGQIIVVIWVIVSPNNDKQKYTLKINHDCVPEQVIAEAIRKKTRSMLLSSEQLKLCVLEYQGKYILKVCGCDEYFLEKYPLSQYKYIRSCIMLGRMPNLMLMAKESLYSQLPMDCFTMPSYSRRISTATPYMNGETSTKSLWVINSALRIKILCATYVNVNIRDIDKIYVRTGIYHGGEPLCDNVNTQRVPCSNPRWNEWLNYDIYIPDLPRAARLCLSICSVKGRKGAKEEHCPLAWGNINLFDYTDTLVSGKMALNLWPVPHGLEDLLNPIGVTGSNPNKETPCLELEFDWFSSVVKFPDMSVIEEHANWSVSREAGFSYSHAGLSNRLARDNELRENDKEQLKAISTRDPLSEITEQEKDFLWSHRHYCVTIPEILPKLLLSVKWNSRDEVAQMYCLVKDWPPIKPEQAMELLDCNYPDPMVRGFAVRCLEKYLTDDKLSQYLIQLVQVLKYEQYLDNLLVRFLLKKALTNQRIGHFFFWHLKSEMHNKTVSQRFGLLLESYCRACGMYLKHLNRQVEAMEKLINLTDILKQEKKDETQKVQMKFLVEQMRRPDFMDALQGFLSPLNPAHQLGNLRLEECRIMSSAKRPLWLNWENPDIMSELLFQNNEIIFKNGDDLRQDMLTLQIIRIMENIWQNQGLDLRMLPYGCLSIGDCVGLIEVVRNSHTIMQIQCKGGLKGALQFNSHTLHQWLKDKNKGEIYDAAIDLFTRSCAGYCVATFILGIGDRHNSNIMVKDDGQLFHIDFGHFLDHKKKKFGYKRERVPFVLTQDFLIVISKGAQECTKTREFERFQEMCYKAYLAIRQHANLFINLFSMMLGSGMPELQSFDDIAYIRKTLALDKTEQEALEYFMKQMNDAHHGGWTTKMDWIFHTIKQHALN
procedureSummary: Inhibition of PIK3CA (unknown origin) using diC8-PIP2 as substrate preincubated for 30 mins followed by substrate addition and measured after 60 mins by ADP-Glo assay

{"columns": ["molecule", "IC50"],
 "data": [
  ["Cc1ccccc1Nc1ncc(C(=O)Nc2ccncc2)cc1NC(=O)c1cc(F)cc(C(F)(F)F)c1", "100 nM"],
  ["Cc1ccccc1Nc1ncc(C(=O)NC2C[S+]([O-])C2)cc1NC(=O)c1csc2ccccc12 (stereo not drawn)", "≤ 100 nM"],
  ["Cc1ccccc1Nc1ncc(C(=O)NCc2nccs2)cc1NC(=O)c1csc2ccccc12", "≤ 100 nM"]
]}

FYI, the data here is from ChEMBL document CHEMBL5365507.
